# measurement_target: Amine oxidase [flavin-containing] A (Homo sapiens)
# experiment_description: Inhibition of recombinant human MAO-A using kynuramine as substrate incubated for 20 mins by spectrophotometric method
Reported IC50 values for a set of molecules

Use the examples below as a reference point.
# input_smiles, quantity_kind, obs_value
data = [
    ("COc1ccc2c(c[n+](C)c3c4cc5c(cc4ccc23)OCO5)c1OC", "IC50", "0.55 µM"),
    ("COc1cc2c(cc1O)[C@H]1Cc3ccc(OC)c(OC)c3CN1CC2", "IC50", "> 20 µM"),
]

Dear colleague, I am looking for the recorded IC50 of the following molecule: "CN1Cc2c(ccc3c2OCO3)[C@@]2(C)[C@@H](O)Cc3cc4c(cc3[C@@H]12)OCO4"
> 20 µM

What about this molecule? "COc1cc2c(cc1OC)-c1c(OC)c(OC)cc3ccnc(c13)C2=O"
> 20 µM

What about this molecule? "COc1cc2c(cc1OC)[C@@H]1Cc3ccc(O)c(OC)c3CN1CC2"
> 20 µM

What about this molecule? "COc1cc2c(cc1OC)[C@@H]1[C@H](C)c3ccc(OC)c(OC)c3CN1CC2"
> 20 µM

###

# measurement_target: UniProtKB P21397
# Sequence (P21397 whole entry): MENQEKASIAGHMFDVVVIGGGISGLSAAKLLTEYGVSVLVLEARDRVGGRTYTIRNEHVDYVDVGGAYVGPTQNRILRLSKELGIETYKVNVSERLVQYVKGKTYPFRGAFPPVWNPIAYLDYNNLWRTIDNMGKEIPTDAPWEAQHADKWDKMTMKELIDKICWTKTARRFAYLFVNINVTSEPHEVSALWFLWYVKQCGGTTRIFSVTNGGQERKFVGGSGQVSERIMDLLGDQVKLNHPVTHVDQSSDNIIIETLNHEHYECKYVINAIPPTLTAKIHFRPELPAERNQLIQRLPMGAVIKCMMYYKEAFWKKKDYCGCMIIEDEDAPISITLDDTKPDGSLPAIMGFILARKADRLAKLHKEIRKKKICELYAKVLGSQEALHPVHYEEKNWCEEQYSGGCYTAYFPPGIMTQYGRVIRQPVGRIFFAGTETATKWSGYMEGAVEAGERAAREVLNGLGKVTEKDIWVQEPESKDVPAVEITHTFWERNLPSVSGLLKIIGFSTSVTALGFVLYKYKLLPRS
# experiment_description: Inhibition of recombinant human MAO-A expressed in baculovirus infected insect cells using aminoproplyether of luciferin methyl ester as substrate after 90 mins by chemiluminescence assay
quantity_kind: pIC50
Keep it numeric: pIC50 is minus log10 of the concentration in mol/L.

Dear colleague, I am looking for the recorded pIC50 of the following compound: COc1cc(-c2[o+]c3cc(O)cc(O)c3cc2O)cc(OC)c1O [MALVIDIN CHLORIDE]
4.66

###

# measurement_target: Amine oxidase [flavin-containing] B (Homo sapiens)
# experiment_description: Inhibition of recombinant human MAO-B using benzylamine as substrate incubated for 30 mins by spectrophotometric method
pIC50: −log10 of the molar value.
quantity_kind: pIC50

# input_smiles, obs_value
measured = [
    ("COc1cc2c(cc1O)[C@H]1Cc3ccc(OC)c(OC)c3CN1CC2", "< 4.70"),
]

Consider the record given below.
Under Amine oxidase [flavin-containing] B (Homo sapiens): pIC50 value of "COc1ccc2c(c[n+](C)c3c4cc5c(cc4ccc23)OCO5)c1OC" ?
< 4.70

###

# measurement_target: Amine oxidase [flavin-containing] A (Homo sapiens)
# experiment_description: Inhibition of recombinant human MAO-A assessed as residual activity at 20 uM using kynuramine as substrate incubated for 20 mins by spectrophotometric method relative to control
# experimental_parameters: read-out: Activity
Reported activity at 20 µM values for a set of molecules
Hey, just the number and the unit after it is fine.

Use the examples below as a reference point.
# input_smiles, activity at 20 µM
rows = [
    ("COc1cc2c(cc1OC)-c1c(OC)c(OC)cc3ccnc(c13)C2=O", "89.7%"),
    ("COc1ccc2c(c[n+](C)c3c4cc5c(cc4ccc23)OCO5)c1OC", "28.3%"),
    ("COc1cc2c(cc1O)[C@H]1Cc3ccc(OC)c(OC)c3CN1CC2", "93.4%"),
]

Under Amine oxidase [flavin-containing] A (Homo sapiens): activity at 20 µM value of "COc1cc2c(cc1OC)[C@@H]1Cc3ccc(O)c(OC)c3CN1CC2" ?
85.6%

What about this molecule? "COc1cc2c(cc1OC)[C@@H]1[C@H](C)c3ccc(OC)c(OC)c3CN1CC2"
79.5%

What about this molecule? "CN1Cc2c(ccc3c2OCO3)[C@@]2(C)[C@@H](O)Cc3cc4c(cc3[C@@H]12)OCO4"
87.9%

###

# measurement_target: Amine oxidase [flavin-containing] B (Homo sapiens, UniProt P27338)
# experiment_description: Inhibition of recombinant human MAO-B assessed as residual activity at 20 uM using benzylamine as substrate incubated for 30 mins by spectrophotometric method relative to control
# experimental_parameters: 0.5 h, read-out: Activity
Reported activity at 20 µM values for a set of compounds
Provide the reading as a plain figure in %.

# input_smiles, activity at 20 µM, %
records = [
    ("COc1cc2c(cc1OC)-c1c(OC)c(OC)cc3ccnc(c13)C2=O", 64.9),
    ("COc1cc2c(cc1O)[C@H]1Cc3ccc(OC)c(OC)c3CN1CC2", 91.4),
    ("COc1cc2c(cc1OC)[C@@H]1[C@H](C)c3ccc(OC)c(OC)c3CN1CC2", 54.7),
    ("COc1ccc2c(c[n+](C)c3c4cc5c(cc4ccc23)OCO5)c1OC", 94.3),
]

Dear colleague, I am looking for the recorded activity at 20 µM of the following compound: "CN1Cc2c(ccc3c2OCO3)[C@@]2(C)[C@@H](O)Cc3cc4c(cc3[C@@H]12)OCO4"
87.6

What about this compound? "COc1cc2c(cc1OC)[C@@H]1Cc3ccc(O)c(OC)c3CN1CC2"
92.8

###

# measurement_target: Amine oxidase [flavin-containing] B (Homo sapiens, UniProt P27338)
# Sequence (P27338 whole entry): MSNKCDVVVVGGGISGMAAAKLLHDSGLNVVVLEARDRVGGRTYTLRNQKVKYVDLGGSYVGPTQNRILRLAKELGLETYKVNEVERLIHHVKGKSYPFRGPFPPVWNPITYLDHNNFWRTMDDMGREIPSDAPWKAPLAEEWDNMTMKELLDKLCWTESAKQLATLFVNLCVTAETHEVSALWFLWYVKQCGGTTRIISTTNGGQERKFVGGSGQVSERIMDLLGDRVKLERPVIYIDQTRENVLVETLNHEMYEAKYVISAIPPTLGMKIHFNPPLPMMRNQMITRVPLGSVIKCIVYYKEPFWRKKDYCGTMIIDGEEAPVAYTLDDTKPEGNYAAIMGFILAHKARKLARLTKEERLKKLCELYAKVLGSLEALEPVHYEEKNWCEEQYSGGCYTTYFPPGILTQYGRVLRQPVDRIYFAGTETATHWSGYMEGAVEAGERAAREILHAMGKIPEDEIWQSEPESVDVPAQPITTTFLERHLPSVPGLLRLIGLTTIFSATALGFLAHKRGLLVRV
# experiment_description: Inhibition of recombinant human MAO-B using benzylamine as substrate incubated for 30 mins by spectrophotometric method
quantity_kind: IC50

Use the examples below as a reference point.
# molecule, IC50
records = [
    ("CN1Cc2c(ccc3c2OCO3)[C@@]2(C)[C@@H](O)Cc3cc4c(cc3[C@@H]12)OCO4", "> 20 µM"),
    ("COc1cc2c(cc1OC)[C@@H]1Cc3ccc(O)c(OC)c3CN1CC2", "> 20 µM"),
    ("COc1cc2c(cc1OC)-c1c(OC)c(OC)cc3ccnc(c13)C2=O [OXOGLAUCINE]", "> 20 µM"),
]

Dear colleague, I am looking for the recorded IC50 of the following molecule: "COc1cc2c(cc1OC)[C@@H]1[C@H](C)c3ccc(OC)c(OC)c3CN1CC2"
24.1 µM
